MFI for assorted binders
# testSystem: T1, ESO157 wild type peptide (…)/HLA-A*02:01 complex on cells (human)
# T1 construct: also called ESO157-loaded T2 cells
# measurementDescription: FACS, peptide-pulsed T2 cells
API doc: respond with a numeric literal and nothing else, no unit.

Reference set, count: 3
phage clone #66, anti-ESO157/HLA-A*02:01 scFv displayed on phage (scFv, V domains shown) VH: EVQLVESGAEVKRPGASVKVSCKASGYTFTSYGISWVRQAPGQGLEWMGRFIPNLNKGNSAHKFEGRVSFTADKFTNTAYMELRGLKSDDTAVYYCARGDYGSDQWGQGTLVTVSS VL: QSVLTQPPSVSGAPGQRVTISCTGSSSNIGAGYDVHWYQQLPGTAPKLLIYGNSNRPSGVPDRFSGSKSGTSASLAITGLQAEDEADYYCQSYDSSLSGSWVFGGGTKLTVLG = 67000
phage clone #116, anti-ESO157/HLA-A*02:01 scFv displayed on phage (scFv, V domains shown) VH: QVQLVQSGPEVKKPGASMKVSCKASGYTFTKYGISWVRQAPGQGLEWMGWISADSGKTSYAQNLQGRVSLTIDTSTATAYMELRSLRSDDTAVYYCARDDDSWGQGTLVTVSS VL: QSVLTQPPSVSAAPGQKVTISCSGSSSNIGNNYVSWYQQLPGTAPKLLIYDNNKRPSGIPDRFSGSKSGTSATLGITGLQTGDEADYYCGTWDSSLSAEVFGTGTKVTVLG = 11300
phage clone #35, anti-ESO157/HLA-A*02:01 scFv displayed on phage (scFv, V domains shown, also called parental phage clone #35) VH: QVQLVQSGAEVKKPGSSVKVSCKASGDTFSSYSISWVRQAPGQGLEWMGRIIPILGIANYAQKYQGRVTLSADKSTSTSYMELNSLRSEDTAVYYCARDWSYSIDYWGQGTLVTVSS VL: QSVVTQPPSVSAAPGQKVTISCSGSSSNIGNNYVSWYQQLPGTAPKLLIYDNNKRPSGIPDRFSGSKSGTSATLGITGLQTGDEADYYCGTWDSSLSAWVFGGGTKLTVLG = 17500

Asked: Which MFI reading was recorded for the binder phage clone #76, anti-ESO157/HLA-A*02:01 scFv displayed on phage (scFv, V domains shown) VH: EVQLVQSGAEVKKPGSSVKVSCKASGGTFSSYAISWVRQAPGQGLEWMGGIIPIFGTANYAQKFQGRVTITADESTSTAYMELSSLRSEDTAVYYCARYDSYVYDEWGQGTLVTVSS VL: QSVVTQPPSLSGAPGQRVTISCNGSGSNIGAGYDVHWYQQLPGTAPKLLIYGNSNRPSGVPDRFSGSKSGTSASLAITGLQAEDEADYYCQSYDSSLSGWGIFGGGTKLTVLG ?
Given back: 7460

src = patent US20190382504A1
